Each record here notes measured IC50.
# TESTED_ON: Muscarinic acetylcholine receptor
# RUN_DESCRIPTION: In vitro inhibition of [3H]OXO-M binding to Muscarinic receptor from rat cortical homogenates

A selection of reference data follows.
- COMPOUND: "Cc1cn(C2CN3CCC2CC3)nn1 (stereo not given)"
  MEAS_VALUE: "5000 nM"
- COMPOUND: "Cn1cnc(C2CN3CCC2CC3)n1 (stereo not given)"
  MEAS_VALUE: "3400 nM"
- COMPOUND: "c1nnn(C2CN3CCC2CC3)n1 (stereo not given)"
  MEAS_VALUE: "240 nM"

Item Cn1cc(C2CN3CCC2CC3)nn1 (stereo not given) with Muscarinic acetylcholine receptor - IC50?
4600 nM

Item O=C1CCCN1CC#CCN1CCCC1 with Muscarinic acetylcholine receptor - IC50?
17 nM

Item Cn1ncc(C2CN3CCC2CC3)n1 (stereo not given) with Muscarinic acetylcholine receptor - IC50?
48 nM

Item Cc1cnn(C2CN3CCC2CC3)n1 (stereo not given) with Muscarinic acetylcholine receptor - IC50?
170 nM

Item Cn1nnc(C2CN3CCC2CC3)n1 (stereo not given) with Muscarinic acetylcholine receptor - IC50?
140 nM

Item Cn1nnnc1C1CN2CCC1CC2 (stereo not given) with Muscarinic acetylcholine receptor - IC50?
6500 nM

Item Cc1ncn(C2CN3CCC2CC3)n1 (stereo not given) with Muscarinic acetylcholine receptor - IC50?
75 nM

Data origin, for the record: ChEMBL document CHEMBL1125425
